system: LXRa homodimer (NR concentration 270 nM); test: PBM binding z-score (relative to random genomic background probes); higher = stronger binding; sequences stand for … in GC…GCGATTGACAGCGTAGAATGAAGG
Listed here are sequences together with their documented PBM binding z-score.
reported endpoint: PBM binding z-score

query sequence: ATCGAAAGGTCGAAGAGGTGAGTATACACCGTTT
reported endpoint: PBM binding z-score
measured: -0.1
//
query sequence: GTACCAAGGTGAACAGGTCGTTGATGAGTAGGCG
reported endpoint: PBM binding z-score
measured: -0.308
//
query sequence: ATATGTAGGTTATCGGGGCATTCAGTTTGCGCAT
reported endpoint: PBM binding z-score
measured: 0.936
